- System: OVCAR-4 ovarian
- testSummary: NCI-60 one-dose screen, 48 h
- conditionNotes: 10 µM unless noted
This is part of a sample that, as a whole, favours compounds with a hit. Of some 83,000 tested, about 20% had one in any assay. Calls of active or inactive are those of the source. The calls were made as follows: active = growth percent below 10; inactive = the rest.
Result category, one only: yes (1) for active, no (0) for inactive

{"molecule": "COc1cc(C2=NN(c3ccc(S(N)(=O)=O)cc3)C(c3ccc(Cl)cc3)C2)cc(OC)c1OC (stereo not given)", "category": "no (0)"}
{"molecule": "COc1ccc(S(=O)(=O)c2ccc(C(N)=O)cc2)cc1NC(=O)c1[nH]c(C)c2c1CCCCC2=O", "category": "no (0)"}
{"molecule": "CC1=CN2C(=NC3=C(CCCC/C3=C\\c3ccccc3)C2c2ccccc2)S1 (stereo not given)", "category": "no (0)"}
{"molecule": "CC(=O)Nc1ccc(Sc2ccc([N+](=O)[O-])o2)cc1", "category": "no (0)"}
{"molecule": "NC(=O)c1cc(I)ccc1NC(=O)COc1ccccc1", "category": "no (0)"}
{"molecule": "Oc1cccc(Nc2nc(-c3ccccn3)cs2)c1", "category": "no (0)"}
{"molecule": "CN([N-]C(=O)CC(=O)[N-]N(C)C(=S)c1ccccc1)C(=S)c1ccccc1.[Cu+2]", "category": "yes (1)"}
{"molecule": "C=C1CC[C@@H]2[C@@](C)(CCC[C@]2(C)C(=O)O)[C@@H]1CC[C@H](CO)CCO", "category": "no (0)"}
{"molecule": "COc1ccc(NC(=O)c2ccc3c(c2)nc(-c2ccc(Cl)cc2)n3-c2cc(C(C)(C)C)[nH]n2)cc1", "category": "no (0)"}

# ---- query molecule ----
GET /call?item= O=C1NC(=O)C2(CCCC2C(=O)O)N1 (stereo not given) returns the recorded outcome of this test.
no (0)

---

- System: COLO 205 colon
- testSummary: NCI-60 one-dose screen, 48 h (100 = growth as untreated, 0 = no growth, -100 = all killed)
- conditionNotes: 10 µM unless noted
This is part of a sample that, as a whole, favours compounds with a hit. Of some 83,000 tested, about 20% had one in any assay.
quantityKind: growth (%)
Reply numerically in %, unit not repeated.

What reported growth corresponds to CCN1C(=O)C2(Nc3ccccc3S2)c2cc(C)ccc21 (stereo not given) on COLO 205 colon?
97

What reported growth corresponds to COc1nc2c(cc1S(=O)(=O)c1ccccc1)CCc1c-2cnn1-c1ccccc1Cl on COLO 205 colon?
70.4

What reported growth corresponds to Cc1ccc2c(N/N=C\c3ccco3)cc(C)nc2n1 on COLO 205 colon?
8.81

What reported growth corresponds to C=C(C)COC(=O)c1ccccc1C(=O)OCC1(C)CO1 (stereo not given) on COLO 205 colon?
106

What reported growth corresponds to Cc1nc2cc(Nc3nc(N4CCOCC4)nc(N4CCN(C)CC4)n3)ccc2n1Cc1ccccc1 on COLO 205 colon?
111

What reported growth corresponds to CCCCNNC(=O)c1ccc(Br)cc1 on COLO 205 colon?
46.1

What reported growth corresponds to Cc1cc(NS(=O)(=O)c2ccc(NC(=O)COc3ccc(-c4cc5ccccc5[nH]4)cc3)cc2)no1 on COLO 205 colon?
-50.5

What reported growth corresponds to Cn1c2c(cc(S(=O)(=O)c3ccccc3)c1=O)CCc1c-2cnn1-c1ccccc1Cl on COLO 205 colon?
113

What reported growth corresponds to Cc1nc(NC(=O)COc2cccc(/C=C3\COc4ccccc4C3=O)c2)sc1C on COLO 205 colon?
16.6

What reported growth corresponds to O=C(Nc1ccc(F)cc1)c1ccc(C(=O)Nc2ccc(F)cc2)cc1 on COLO 205 colon?
114

---

- Tested on: HOP-62 NSCLC
- testSummary: NCI-60 one-dose screen, 48 h (100 = growth as untreated, 0 = no growth, -100 = all killed)
- conditionNotes: 10 µM unless noted
About 83,000 compounds went through this panel and 20% of them were active in at least one assay; those are over-represented in the sample as a whole.
quantityKind: growth (%)
Reply numerically in %, unit not repeated.

Reported growth for O=S(=O)(/N=C1C=C/C(=N\S(=O)(=O)c2ccccc2)c2ccccc2\1)c1ccccc1 : what is it?
90.2

Reported growth for Nc1cc(Br)c(-c2nnc(CCC(=O)c3nc4ccccc4[nH]3)o2)c(Br)c1 : what is it?
82.2

Reported growth for Fc1ccccc1Nc1ccc2nnc(-c3ccncc3)n2n1 : what is it?
106

Reported growth for CCCC1=NNC(=O)C1 : what is it?
99

Reported growth for COc1cc(C2CC(=O)Nc3c2ccc2ccccc32)cc(Br)c1OC (stereo not drawn) : what is it?
24.9

---

- Tested on: NCI-H322M lung
- testSummary: NCI-60 one-dose screen, 48 h (100 = growth as untreated, 0 = no growth, -100 = all killed)
- conditionNotes: 10 µM unless noted
The panel holds about 83,000 compounds, 20% with a hit somewhere; the sample as a whole holds those more often.
quantityKind: growth (%)
Reply numerically in %, unit not repeated.

{"compound": "Cc1ccc2nc(NC(=O)CSC(=S)N3CCN(Cc4ccccc4)CC3)sc2c1", "studyTarget": "NCI-H322M lung", "growth (%)": -71.8}

Reported growth for Cc1nc2nc(C(F)(F)F)[nH]c2nc1C : what is it?
110

Reported growth for O=C(CC(O)c1ccccc1)Nc1ccccn1 (stereo unspecified) : what is it?
93.3

---

- Tested on: HCT-116 colon
- testSummary: NCI-60 one-dose screen, 48 h
- conditionNotes: 10 µM unless noted
About 83,000 compounds went through this panel and 20% of them were active in at least one assay; those are over-represented in the sample as a whole. Calls of active or inactive are those of the source. Rule for the calls: active = growth percent below 10; inactive = the rest.
Result category, one only: Y (active), N (inactive)

Worked examples, 8 compounds total:
{"compound": "C=CC(=O)N1CC2(CC(n3nc(-c4ccc(Oc5ccccc5)cc4)c4c(N)ncnc43)C2)C1", "category": "N"}
{"compound": "O=C(COc1cccc(/C=C2\\COc3ccccc3C2=O)c1)c1ccccc1", "category": "Y"}
{"compound": "c1ccc(-c2nc(N3CCOCC3)c3c4c(sc3n2)CCCCCC4)nc1", "category": "N"}
{"compound": "CC(=O)Nc1ccc(S(=O)(=O)N/N=C\\c2ccc(Cl)c(Cl)c2)cc1", "category": "N"}
{"compound": "COc1cc2oc(-c3ccc(O)cc3)cc(=O)c2c(O)c1I", "category": "N"}
{"compound": "Nc1cc(Br)c(-c2nnc(CCC(=O)c3nc4ccccc4[nH]3)o2)c(Br)c1", "category": "N"}
{"compound": "Cc1ccc2nc(NC(=O)CSC(=S)N3CCN(Cc4ccccc4)CC3)sc2c1", "category": "Y"}
{"compound": "Cc1nc2cc(Nc3nc(Nc4ccc(F)cc4)nc(N4CCN(C)CC4)n3)ccc2n1Cc1ccccc1", "category": "Y"}

GET /call?item= CC(C)(C)CC(C)(C)N(CSc1ccc(Cl)cc1)CSc1ccc(Cl)cc1 returns the recorded outcome of this test.
N

GET /call?item= Cc1cc(O)cc2c1[C@H]1CC[C@]3(C)[C@@H](O)CC[C@H]3[C@@H]1C=C2 returns the recorded outcome of this test.
N

GET /call?item= O=c1[nH]c(=S)c2c(n1CCCO)CCC2 returns the recorded outcome of this test.
N

GET /call?item= COc1ccc(-c2[nH]ncc2Nc2cc(OC)c(OC)c(OC)c2)cc1 returns the recorded outcome of this test.
N

GET /call?item= COc1ccc(C2CC(c3cc(OC)c(OC)c(OC)c3)=NN2c2ccc(S(N)(=O)=O)cc2)cc1 (stereo unspecified) returns the recorded outcome of this test.
N

GET /call?item= COc1ccc(/C=N\N2CCOCC2)cc1OC1CCCC1 returns the recorded outcome of this test.
N

---

- Tested on: M14 melanoma
- testSummary: NCI-60 one-dose screen, 48 h (100 = growth as untreated, 0 = no growth, -100 = all killed)
- conditionNotes: 10 µM unless noted
The panel holds about 83,000 compounds, 20% with a hit somewhere; the sample as a whole holds those more often.
Class (required): determined from growth; valid ranges are b0 = under 30%, b1 = from 30% up to 90%, b2 = 90% and over

Worked examples, 6 compounds total:
{"compound": "COC(=O)[C@@H]1CCCN1C(=O)[C@@H]1CCCN1C(=O)[C@@H](Cc1c[nH]c2ccccc12)NC(=S)Nc1cc(C(F)(F)F)cc(C(F)(F)F)c1", "category": "b1"}
{"compound": "C[C@H]1C(=O)C23CCC1C[C@@]21O[C@@H]2C(C)(C)C=CC(=O)C23COC1=O", "category": "b2"}
{"compound": "CN(C)C(=S)SCN1C(=O)c2ccc([N+](=O)[O-])cc2S1(=O)=O", "category": "b2"}
{"compound": "Cc1nc2cc(Nc3nc(Nc4ccc(F)cc4)nc(-c4ccc(Cl)cc4)n3)ccc2n1Cc1ccccc1", "category": "b1"}
{"compound": "Cc1ccc(S(=O)(=O)N2CCc3ccc(O)c4c3C2CCc2ccccc2-4)cc1 (stereo not given)", "category": "b2"}
{"compound": "CC(=O)c1cc(C)c(OC(=O)c2ccccc2)c(C)c1", "category": "b2"}

In plain terms, what class is COc1ccc(C(=O)COc2cccc(/C=C3\CSc4ccc(C)cc4C3=O)c2)cc1 ?
b2

In plain terms, what class is COc1ccc(C(=O)C2=CC(=O)C(=O)C2)cc1OC ?
b2

In plain terms, what class is O=C(N/N=C/c1ccc(F)cc1)c1[nH]c2ccc(I)cc2c1-c1ccccc1 ?
b0

In plain terms, what class is FCOC(C(F)(F)F)C(F)(F)F ?
b2

In plain terms, what class is CN1CCN(c2ccc3nc(-c4ccc5nc(-c6ccc(C(F)(F)F)cc6)[nH]c5c4)[nH]c3c2)CC1 ?
b1

In plain terms, what class is O=C1CCC(N2C(=O)c3cccc(NCCOCCOCCNC(=O)c4cc5c(o4)C(=O)c4ccccc4C5=O)c3C2=O)C(=O)N1 (stereo not given) ?
b0

In plain terms, what class is C=CC(=O)N1CC2(CC(n3nc(-c4ccc(Oc5ccccc5)cc4)c4c(N)ncnc43)C2)C1 ?
b0

In plain terms, what class is c1ccc(-c2n(Cc3ccc4ccccc4n3)c3ccccc3[n+]2Cc2ccc3ccccc3n2)cc1 ?
b0

In plain terms, what class is Oc1ccc(Cl)cc1CNc1nc2ccccc2[nH]1 ?
b0

In plain terms, what class is COc1cc2nc(SCc3cc(OC)c(OC)c(OC)c3)n(-c3ccccc3OC)c(=O)c2cc1OC ?
b1

In plain terms, what class is COc1ccc(NC(=O)COc2ccccc2)c(C(N)=O)c1 ?
b0

In plain terms, what class is COC(=O)c1c2c(c(C)[n+]([O-])c1C)C(=O)C=C(NCc1cccc(Cl)c1)C2=O ?
b0

In plain terms, what class is ONc1nc(NO)c2[nH]cnc2n1 ?
b1
